# maps each entry to its body weight change
- assayInfo: 10-day diet-induced obese C57bl/6 mice study, body weight change
- Type: in vivo, mouse
- Design: unit not given here
- runConditions: DIO C57BL/6J mice, oral 30 mg/kg once a day, after 10 days of treatment

OCc1ccc(-c2ccc(N3CCC(N4CCc5ccc(F)cc54)CC3)nn2)cn1: −2.2 ± 0.5 *
Cn1cc(-c2ccc(N3CCC(n4ncc5ccc(F)cc54)CC3)nn2)cn1: −3.3 ± 0.5 *
OCCn1cc(-c2ccc(N3CCC(N4CCc5ccc(F)cc54)CC3)nn2)cn1: 0.5 ± 0.1 *
Cn1cc(-c2ccc(N3CCC(N4CCc5ccc(F)cc54)CC3)nn2)cn1: −2.1 ± 0.3 *

Query :: Check the records and state body weight change for OCc1cnn(-c2ccc(N3CCC(N4CCc5ccc(F)cc54)CC3)nn2)c1
Result :: 1.2 ± 0.3 *
